Tested on: Salmonella typhimurium Ames mutagenicity, literature compiled
Test: DSSTox (CPDBAS) Carcinogenic Potency Database Salmonella Mutagenicity
The source made the active and inactive calls.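 The calls were made as follows: active = chemicals rated mutagenic or weakly mutagenic in the Salmonella bacterial test by one literature review, or positive overall by another; inconclusive = no clear call, values can overlap the other calls; inactive = the rest.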
Outcome codes: label 1 (active), label 0 (inactive)

>  <MOLECULE>
CBr

>  <DISCRETE_LABEL>
label 1

$$$$
>  <MOLECULE>
CCN(Cc1cccc(S(=O)(=O)O)c1)c1ccc(C(=C2C=CC(=[N+](CC)Cc3cccc(S(=O)(=O)O)c3)C=C2)c2ccc(O)cc2S(=O)(=O)[O-])cc1

>  <DISCRETE_LABEL>
label 0

$$$$
>  <MOLECULE>
CC(C)Oc1ccc(Nc2ccccc2)cc1

>  <DISCRETE_LABEL>
label 0

$$$$
>  <MOLECULE>
FC(F)OC(F)(F)C(F)Cl (configuration not stated)

>  <DISCRETE_LABEL>
label 0

$$$$
>  <MOLECULE>
O=C(OOC(=O)c1ccccc1)c1ccccc1

>  <DISCRETE_LABEL>
label 0

$$$$
>  <MOLECULE>
O=c1ccc2ccccc2o1

>  <DISCRETE_LABEL>
label 1

$$$$
>  <MOLECULE>
ClC1=C(Cl)[C@]2(Cl)[C@@H]3[C@H]4C=CC(C4)[C@@H]3C1(Cl)C2(Cl)Cl

>  <DISCRETE_LABEL>
label 0

$$$$
>  <MOLECULE>
Cc1cc2c(nc1N)[nH]c1ccccc12

>  <DISCRETE_LABEL>
label 1

$$$$
>  <MOLECULE>
NC(N)=NC(N)=NCCc1ccccc1

>  <DISCRETE_LABEL>
label 0

$$$$
>  <MOLECULE>
O=[N+]([O-])c1ccc(NCCO)c(OCCO)c1

>  <DISCRETE_LABEL>
label 1

$$$$
>  <MOLECULE>
c1ccc2c(c1)[nH]c1cnccc12

>  <DISCRETE_LABEL>
label 1

$$$$
>  <MOLECULE>
[N-]=[N+]=CC(=O)OC[C@H](N)C(=O)O

>  <DISCRETE_LABEL>
label 1

$$$$
>  <MOLECULE>
CCCOC(=O)c1cc(O)c(O)c(O)c1

>  <DISCRETE_LABEL>
label 0

$$$$
>  <MOLECULE>
CNc1ccc(N(CCO)CCO)cc1[N+](=O)[O-]

>  <DISCRETE_LABEL>
label 1

$$$$
>  <MOLECULE>
C=C(C)C

>  <DISCRETE_LABEL>
label 0

$$$$
>  <MOLECULE>
Clc1ccc(C(c2ccc(Cl)cc2)C(Cl)Cl)cc1

>  <DISCRETE_LABEL>
label 0

$$$$
>  <MOLECULE>
CC(Cl)CCl (configuration not stated)

>  <DISCRETE_LABEL>
label 1

$$$$
>  <MOLECULE>
CNC(=O)CSP(=S)(OC)OC

>  <DISCRETE_LABEL>
label 1

$$$$
>  <MOLECULE>
C[C@H]1C(=O)O[C@@H]2CCN3CC=C(COC(=O)[C@](C)(O)[C@]1(C)O)[C@H]23

>  <DISCRETE_LABEL>
label 0

$$$$
>  <MOLECULE>
CC(=O)N(O)c1ccc2c(c1)Cc1ccccc1-2

>  <DISCRETE_LABEL>
label 1

$$$$
>  <MOLECULE>
CN(C)c1ccc(C(=C2C=CC(=[N+](C)C)C=C2)c2ccc(N(C)C)cc2)cc1

>  <DISCRETE_LABEL>
label 0

$$$$
>  <MOLECULE>
CCCCCC(N)=O

>  <DISCRETE_LABEL>
label 0

$$$$
>  <MOLECULE>
N[C@@H](Cc1c[nH]c2ccccc12)C(=O)O

>  <DISCRETE_LABEL>
label 0

$$$$
>  <MOLECULE>
CCSCC[C@H](N)C(=O)O

>  <DISCRETE_LABEL>
label 0

$$$$
>  <MOLECULE>
O=C(O)[C@@H]1[C@H](C(=O)O)[C@@]2(Cl)C(Cl)=C(Cl)[C@]1(Cl)C2(Cl)Cl

>  <DISCRETE_LABEL>
label 0

$$$$
>  <MOLECULE>
O=[N+]([O-])c1cccc2ccccc12

>  <DISCRETE_LABEL>
label 1

$$$$
>  <MOLECULE>
COC(=O)c1ccc(C(=O)OC)cc1

>  <DISCRETE_LABEL>
label 0

$$$$
